Kindly find below pIC50 information for NAMPT (Homo sapiens, UniProt P43490) taken from the literature.
pIC50: −log10 of the molar value.
Measured metric: pIC50

Example molecules with recorded pIC50:
The recorded pIC50 with NAMPT (Homo sapiens, UniProt P43490) for C=C[C@H](CO)NC(=O)N(Cc1ccc(C#N)cc1)c1ncc(C(=O)NCCCn2ccnc2)s1 was 7.22

The recorded pIC50 with NAMPT (Homo sapiens, UniProt P43490) for O=C(CCC(F)(F)F)Nc1ccc(NC(=O)Nc2ccc3nccn3c2)cc1 was 8.92

The recorded pIC50 with NAMPT (Homo sapiens, UniProt P43490) for CCCCN1CCC(c2ccc(NC(=O)C3CN(c4cccnc4)C3)cc2)CC1 was 9.06

The recorded pIC50 with NAMPT (Homo sapiens, UniProt P43490) for N#Cc1ccc(CN(C(=O)NC2CC(C(=O)O)C2)c2ncc(C(=O)NCCCn3ccnc3)s2)cc1 (centres unmarked) was 6.23

The recorded pIC50 with NAMPT (Homo sapiens, UniProt P43490) for O=C(Nc1ccc(OC2CCN(C(=O)Cc3ccccc3F)CC2)cc1)C1CN(c2cccnn2)C1 was 8.99

I = CC(C)C(=O)N1CCC(c2ccc(NC(=O)NCc3ccn4ccnc4c3)cc2)C1 (centres unmarked)
II = O=C(NCc1ccc2nccn2c1)c1ccc(C2=CCN(C(=O)C3CCCO3)CC2)cc1 (centres unmarked)
Data request: For the two items I and II , which reports the higher pIC50 value? Pick one; state its label.
Data returned: I

====

pIC50: −log10 of the molar value.
Kindly find below pIC50 information for NAMPT (Homo sapiens, UniProt P43490) taken from the literature.
Measured metric: pIC50

Example molecules with recorded pIC50:
The molecule identified as COCCN(C(=O)Cc1cccnc1)c1ncc(C(=O)NCCCn2ccnc2)s1 registered its pIC50 at 9.55

The molecule identified as O=C(NCc1ccn2ccnc2c1)c1ccc(C2=CCN(S(=O)(=O)C3CC3)CC2)s1 registered its pIC50 at 9.66

The molecule identified as COCCOCC(=O)N1CC=C(c2ccc(C(=O)NCc3ccc4nccn4c3)cc2)CC1 registered its pIC50 at 8.84

The molecule identified as CC(C)(C)OC(=O)N1CC[C@H](Oc2ccc(NC(=O)NCc3ccn4ccnc4c3)cc2)C1 registered its pIC50 at 9.35

The molecule identified as CC(C)(C)CC(=O)N1CCC(c2ccc(C(=O)NCc3ccn4ccnc4c3)cc2)C1 (stereo not drawn) registered its pIC50 at 9.05

The molecule identified as O=C(NCc1ccn2ccnc2c1)c1ccc(C2=CCN(C(=O)c3ccccc3F)CC2)o1 registered its pIC50 at 9.00

The molecule identified as CC(C)(C)CC(=O)N1CCC(O)(c2ccc(C(=O)NCc3ccn4ccnc4c3)s2)CC1 registered its pIC50 at 9.13

The molecule identified as O=C(NCc1ccc2nccn2c1)c1ccc(C2=CCN(C(=O)C3COCCO3)CC2)cc1 (stereo not drawn) registered its pIC50 at 8.92

The molecule identified as O=C(NCc1ccn2ccnc2c1)c1cnc(N(C[C@H]2CCCO2)C(=O)Cc2ccon2)s1 registered its pIC50 at 9.62

The molecule identified as O=C(NCc1ccn2ccnc2c1)c1ccc(OC2CCN(C(=O)C3CCOCC3)CC2)cc1 registered its pIC50 at 9.65

A = Cc1ccsc1C(=O)N1CCC(c2ccc(C(=O)NCc3ccn4ccnc4c3)cc2)CC1
B = Cc1noc(C)c1CC(=O)N(CC1CCCO1)c1ncc(C(=O)NCc2ccc3nccn3c2)s1 (stereo not drawn)
C = Cc1ncccc1N1CC(C(=O)Nc2ccc(C3CCN(C(=O)CC4CCCCC4)CC3)cc2)C1
D = CN(Cc1ccc(-c2cccnc2)cc1)c1ncc(C(=O)NCCCn2ccnc2)s1
E = Cc1ncccc1N1CC(C(=O)Nc2ccc(C3CCN(C(=O)C(C)(C)C)CC3)cc2)C1
Data request: Hey, can you sort those molecules up there by pIC50, smallest first? Return the labels ranked in the requested order, please.
Data returned: C, E, D, B, A
